# Method summary: Stability in mouse liver microsomes assessed as parent compound remaining at 1 uM measured after 60 mins in presence of NADPH by LC-MS/MS analysis
# Assay type: ADME, Microsome
# Measurement conditions: read-out: Stability
Property: remaining at 1 h, 1 µM (%)

# count of solved cases: 5
{"columns": ["Molecule", "remaining at 1 h, 1 µM (%)"],
 "data": [
  ["CN1CCCc2c1nc(N1CCC3(CC1)C(=O)N(C)c1cc(OCCO)cc(F)c13)[nH]c2=O", 0.7],
  ["COCCOc1cc(F)c2c(c1)N(C)C(=O)C21CCN(c2nc3c(c(=O)[nH]2)CCCN3C)CC1", 13.7],
  ["CN1CCCc2c1nc(N1CCC3(CC1)C(=O)N(CC#N)c1cc(F)cc(F)c13)[nH]c2=O", 1.2],
  ["CN1CCCc2c1nc(N1CCC3(CC1)C(=O)N(CC(O)CO)c1cc(F)cc(F)c13)[nH]c2=O (centres undefined)", 42.7],
  ["CN1CCCc2c1nc(N1CCC3(CC1)C(=O)N(C)c1cc(OCCN4CCCCC4)cc(F)c13)[nH]c2=O", 56]
]}

A: CN1CCCc2c1nc(N1CCC3(CC1)C(=O)N(C)c1cc(OCCN4CCCC4)cc(F)c13)[nH]c2=O
B: CN1CCCc2c1nc(N1CCC3(CC1)C(=O)N(C)c1cc(F)cc(F)c13)[nH]c2=O
C: COCCN1C(=O)C2(CCN(c3nc4c(c(=O)[nH]3)CCCN4C)CC2)c2c(F)cc(F)cc21
D: CN1CCCc2c1nc(N1CCC3(CC1)C(=O)N(C)c1cc(N4CCCCC4)cc(F)c13)[nH]c2=O
Prompt: // smallest remaining at 1 h, 1 µM at index 0, largest at the end Your answer should be the labels, listed in the requested order.
Response: B, C, D, A
(B: 0%, C: 0.1%, D: 10.5%, A: 100%)

P: CN(C)CCOc1cc(F)c2c(c1)N(C)C(=O)C21CCN(c2nc3c(c(=O)[nH]2)CCCN3C)CC1
Q: CN1CCCc2c1nc(N1CCC3(CC1)C(=O)N(C)c1cc(OCCN4CCOCC4)cc(F)c13)[nH]c2=O
R: COc1cc(F)c2c(c1)N(C)C(=O)C21CCN(c2nc3c(c(=O)[nH]2)CCCN3C)CC1
S: CN1CCCc2c1nc(N1CCC3(CC1)C(=O)N(CS(C)(=O)=O)c1cc(F)cc(F)c13)[nH]c2=O
Prompt: // smallest remaining at 1 h, 1 µM at index 0, largest at the end Your answer should be the labels, listed in the requested order.
Response: R, S, Q, P

###

# Method summary: Stability in human liver microsomes assessed as parent compound remaining at 1 uM measured after 60 mins in presence of NADPH by LC-MS/MS analysis
# Assay type: ADME, Microsome
# Measurement conditions: read-out: Stability
Property: remaining at 1 h, 1 µM (%)

I: CN1CCCc2c1nc(N1CCC3(CC1)C(=O)N(CC1COC1)c1cc(F)cc(F)c13)[nH]c2=O
II: CN1CCCc2c1nc(N1CCC3(CC1)C(=O)N(C)c1cc(OCCN4CCOCC4)cc(F)c13)[nH]c2=O
III: CN1CCC(Oc2cc(F)c3c(c2)N(C)C(=O)C32CCN(c3nc4c(c(=O)[nH]3)CCCN4C)CC2)CC1
Prompt: Method: rank(items above, key=remaining at 1 h, 1 µM, ascending=True) Your answer should be the labels, listed in the requested order.
Response: I, II, III
